Reported log10 of kon by item:
# system.name: T1, AAV5 (adeno-associated virus 5)
# T1 construct: also called adeno-associated virus serotype 5
# method.description: SPR, AAV amine-coupled to CM5 chip;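 note: nanobodies flowed as analyte at seven concentrations spanning 1–100 nM over immobilized AAV (500–800 RU), kinetic constants derived by fitting the binding curves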
property.measured: log10 of kon (log10 of the value in M⁻¹ s⁻¹)

[
  {
    "binder": "A4-053 (VHH) VHH: VQLQESGGGLVQPGGSLRLSCAASGSIFIINTMGWYRRAPGKQRELVAAVTRGGSTNYADSVKGRFTISRDNAKNTVYLQMNSLRPEDTAVYYCHVDEVRQSSWTTSNLWGQGTQVTVSS",
    "log10 of kon": 5.21
  },
  {
    "binder": "A4-095 (VHH) VHH: VQLQESGGGLVQPGGSLRLSCAASGSSFSANTMGWYRQAPGKQRELVATITRGGNTNYGDSVKGRFTISRDNAKDTVYLQMNSLRPEDTAVYYCHIDEIRESTWTTSNLWGQGTQVTVSS",
    "log10 of kon": 4.96
  },
  {
    "binder": "A4-083 (VHH) VHH: VQLQESGGGLVQTGGSLKLSCAASGSRFSLNTMGWYRQAPRKQREFVAAVTRGGNTNYGDFVKGRFTISRDNAKNTVYLQMNSLRPEDTAVYYCHVDELRESSWTTSNLWGQGTQVTVSS",
    "log10 of kon": 4.97
  },
  {
    "binder": "A4-099 (VHH) VHH: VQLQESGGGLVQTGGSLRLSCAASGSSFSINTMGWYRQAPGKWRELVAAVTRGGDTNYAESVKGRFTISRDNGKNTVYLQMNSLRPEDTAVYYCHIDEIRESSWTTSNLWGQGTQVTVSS",
    "log10 of kon": 4.99
  },
  {
    "binder": "A4-067 (VHH) VHH: VQLQESGGGLVQTGGSLRLSCAASGRAFSLNTMGWYRQAPGKWRELVATVTRGGSTNYAGSVKGRFTISRDNTKNTVYLQMNNLRPEDTAVYYCHVDEVRESSWTTSNLWGQGTQVTVSS",
    "log10 of kon": 3.45
  },
  {
    "binder": "A4-054 (VHH) VHH: VQLQESGGGLVQPGGSLRLSCAASGSAFSINTMGWYRQAPGKQRELVAAVTRGGSTNYADSVKGRFTISRDNAKNTVYLQMNSLRPEDTAVYYCHVDEVRQSSWTTSNLWGQGTQVTVSS",
    "log10 of kon": 3.88
  },
  {
    "binder": "A4-094 (VHH) VHH: VQLQESGGGLVQPGGSLRLSCVASGSIFVINTMGWYRQAPGKQRELVATVTRDGGTNYADSVKGRFTISRDNAKNTVYLQMNSLRPEDTAVYYCHIDEIRESSWTTSNLWGQGTQVTVSS",
    "log10 of kon": 3.99
  },
  {
    "binder": "A4-070 (VHH) VHH: VQLQESGGGLVQPGGSLRLSCAASGSIFSINSMGWYRQAPGKWRELVATVTRGGSTNYANSVKGRFTISRDNAKNTVYLQMNTLRPEDTAVYYCHLDEVRDSSWTTSNLWGQGTQVTVSS",
    "log10 of kon": 3.87
  }
]

# credit: patent US20260193326A1
